- systemName: 5-hydroxytryptamine receptor 1A (Homo sapiens)
- Sequence (P08908 whole entry): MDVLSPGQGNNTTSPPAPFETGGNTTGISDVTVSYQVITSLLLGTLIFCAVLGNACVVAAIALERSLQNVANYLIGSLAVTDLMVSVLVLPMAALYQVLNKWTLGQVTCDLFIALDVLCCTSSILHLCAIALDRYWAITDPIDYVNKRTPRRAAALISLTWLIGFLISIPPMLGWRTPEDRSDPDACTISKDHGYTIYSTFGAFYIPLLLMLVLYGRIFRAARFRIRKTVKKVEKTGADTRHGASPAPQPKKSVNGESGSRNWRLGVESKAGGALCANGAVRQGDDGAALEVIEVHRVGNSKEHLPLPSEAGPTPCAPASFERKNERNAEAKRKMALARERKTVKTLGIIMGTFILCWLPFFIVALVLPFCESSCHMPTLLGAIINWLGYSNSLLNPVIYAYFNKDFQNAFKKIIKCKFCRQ
- testProtocol: Binding affinity against 5-hydroxytryptamine 1A human cloned receptors in HEK293 cells using [3H]8-OH-DPAT as radioligand
- Format: cell-based
propertyLabel: Ki (nM)
// note: answer is a bare numeric in nM

Exercise: API: value(readout=Ki, system=5-hydroxytryptamine receptor 1A (Homo sapiens)) for record "CC(C)C[C@H]1C(=O)N[C@@H](Cc2ccccc2)[C@]2(O)O[C@@](C)(NC(=O)[C@@H]3C=C4c5cccc6[nH]cc(c56)C[C@H]4N(C)C3)C(=O)N12"
Solution: 0.0631

* * *

- systemName: UniProt P14416
- Sequence (P14416 whole entry): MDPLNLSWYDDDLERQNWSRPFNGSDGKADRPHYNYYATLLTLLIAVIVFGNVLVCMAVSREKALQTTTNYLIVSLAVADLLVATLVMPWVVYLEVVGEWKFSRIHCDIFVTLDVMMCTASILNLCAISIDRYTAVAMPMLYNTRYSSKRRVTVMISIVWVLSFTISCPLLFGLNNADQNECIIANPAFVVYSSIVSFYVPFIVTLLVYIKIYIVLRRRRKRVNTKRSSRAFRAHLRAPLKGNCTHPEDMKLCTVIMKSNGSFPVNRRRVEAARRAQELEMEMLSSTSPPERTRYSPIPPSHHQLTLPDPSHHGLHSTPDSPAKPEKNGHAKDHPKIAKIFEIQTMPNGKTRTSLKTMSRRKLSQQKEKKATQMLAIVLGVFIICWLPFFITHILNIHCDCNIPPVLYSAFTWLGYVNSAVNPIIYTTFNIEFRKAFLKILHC
- testProtocol: Binding affinity against human Dopamine receptor D2 in CHO cells using [125I]iodosulpiride
propertyLabel: pKi
// scale note: pKi = -log10(conc_M); give the bare number

Exercise: Entry "CC(C)C[C@H]1C(=O)N[C@@H](Cc2ccccc2)[C@]2(O)O[C@@](C)(NC(=O)[C@@H]3C=C4c5cccc6[nH]cc(c56)C[C@H]4N(C)C3)C(=O)N12" has what pKi?
Solution: 8.50
